Data provenance is ChEMBL document CHEMBL3091384.

# SYSTEM: Poly [ADP-ribose] polymerase 2 (Homo sapiens) (UniProt Q9UGN5)
# Sequence (Q9UGN5 whole entry): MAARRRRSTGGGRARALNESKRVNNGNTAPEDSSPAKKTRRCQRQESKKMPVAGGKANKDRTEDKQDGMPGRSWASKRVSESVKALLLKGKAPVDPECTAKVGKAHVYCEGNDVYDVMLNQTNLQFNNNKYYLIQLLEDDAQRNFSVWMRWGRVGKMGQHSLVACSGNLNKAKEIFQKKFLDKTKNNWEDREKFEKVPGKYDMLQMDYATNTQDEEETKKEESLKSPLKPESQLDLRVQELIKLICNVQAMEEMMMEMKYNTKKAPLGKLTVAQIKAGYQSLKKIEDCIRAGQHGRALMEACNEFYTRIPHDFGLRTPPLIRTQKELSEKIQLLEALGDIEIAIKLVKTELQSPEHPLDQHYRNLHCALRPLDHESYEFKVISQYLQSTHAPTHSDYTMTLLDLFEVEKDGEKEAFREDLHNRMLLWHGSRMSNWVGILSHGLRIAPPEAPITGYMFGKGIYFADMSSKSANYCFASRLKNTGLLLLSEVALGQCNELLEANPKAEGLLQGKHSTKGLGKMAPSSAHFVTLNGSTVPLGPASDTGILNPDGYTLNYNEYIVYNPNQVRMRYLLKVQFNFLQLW
# note: boundary value 0.5 °C maps to N; ΔTm below it maps to Y

Example results:
CCC(=O)[C@H](Cc1ccccc1)NC(=O)CCc1nc2ccccc2c(=O)[nH]1 : N
C[C@H](NC(=O)CCc1nc2ccccc2c(=O)[nH]1)c1cccc(F)c1 : Y
O=C(CCCc1nc2ccccc2c(=O)[nH]1)NC(c1ccccc1)c1ccccc1 : N

Is the reported ΔTm for "O=C(CCc1nc2ccccc2c(=O)[nH]1)NC(c1ccccc1)c1ccccc1" strictly below 0.5 °C?
Y

For this molecule, is ΔTm lower than 0.5 °C? O=C(CCc1nc2ccccc2c(=O)[nH]1)NC(c1ccc(Cl)cc1)C1CC1 (racemic)
N

Decide: ΔTm of "O=C(CCc1nc2ccccc2c(=O)[nH]1)NCc1ccccc1O" strictly below 0.5 °C?
N

Hi there! Is ΔTm for "Cc1ccc([C@H](C)NC(=O)CCc2nc3ccccc3c(=O)[nH]2)cc1C" below 0.5 °C, do you know?
Y

Here's an entry: "O=C(CCc1nc2ccccc2c(=O)[nH]1)NCCc1ccccc1" . Is its ΔTm below 0.5 °C?
N

A record lists "O=C(CCc1nc2cc(Cl)ccc2c(=O)[nH]1)NC(c1ccccc1)c1ccccc1" . Is its ΔTm below 0.5 °C?
N

Please check: ΔTm for "C[C@H](NC(=O)CCc1nc2ccccc2c(=O)[nH]1)c1ccc(Cl)cc1" , strictly under 0.5 °C or not?
Y
